experiment: qHTS of pediatric cancer cell lines to identify multiple opportunities for drug repurposing: Primary screen for DAOY cells (AID 1347090); settings: DAOY medulloblastoma viability, CellTiter-Glo luminescence, 48 h; series mostly up to 46 µM; note: nearly all actives have a fitted effect of over 55% in size
Records with an inconclusive call do not appear. Activity calls are given as the source filed them. Calls come from the whole dose curve; as a rule, active = well fitted cell-killing curve with a large enough effect; inconclusive = small, poorly fitted or top-dose-only effect; inactive = flat fitted curve, though single readings scatter.
Outcome codes: TRUE for active, FALSE for inactive

molecule="NS(=O)(=O)c1cc2c(cc1Cl)NC(CC1CCCC1)NS2(=O)=O (centres undefined)" group_label=FALSE
molecule=N[C@H](C(=O)O)[C@@H](O)c1ccc(O)c(O)c1 group_label=FALSE
molecule=OC(C#CCN1CCCC1)(c1ccccc1)c1ccccc1 group_label=FALSE
molecule=CCN(CC)CCOc1ccccc1C(=O)CCc1ccccc1 group_label=FALSE
molecule=CCCCN=C(N)N=C(N)N group_label=FALSE
molecule=OCc1ccccn1 group_label=FALSE
molecule="CCN(CC)CCOC(=O)C(Cc1cccc2ccccc12)CC1CCCO1 (centres undefined)" group_label=FALSE
molecule=CC(C)Nc1cccnc1N1CCN(C(=O)c2cc3cc(NS(C)(=O)=O)ccc3[nH]2)CC1 group_label=FALSE
molecule=Nc1nc(-c2ccccc2)c(Br)c(=O)[nH]1 group_label=FALSE
molecule=CCOC(=O)C(C#N)=C(c1ccccc1)c1ccccc1 group_label=FALSE
molecule=CC(=O)NCCCCCC(=O)O group_label=FALSE
molecule=COc1ccc(/C=N/NC(=O)c2ccncc2)cc1OC group_label=FALSE
molecule=c1ccc(-c2nc[nH]c2-c2ccccc2)cc1 group_label=FALSE
molecule="O=C(Nc1ccccc1)OCC(CN1CCCCC1)OC(=O)Nc1ccccc1 (centres undefined)" group_label=FALSE
molecule=COc1cc(O)c(C(=O)c2ccccc2)cc1S(=O)(=O)O group_label=FALSE
molecule=C[C@@H](O)[C@H]1C(=O)N2C(C(=O)O)=C([C@H]3CCCO3)S[C@H]12 group_label=FALSE
molecule=C[C@H]1O[C@@H](O[C@H]2CC[C@@]3(C)[C@H](CC[C@@H]4[C@@H]3C[C@@H](O)[C@]3(C)[C@@H](C5=CC(=O)OC5)CC[C@]43O)C2)C[C@H](O)[C@@H]1O[C@H]1C[C@H](O)[C@H](O[C@H]2C[C@H](O)[C@H](O[C@@H]3O[C@H](CO)[C@@H](O)[C@H](O)[C@H]3O)[C@@H](C)O2)[C@@H](C)O1 group_label=TRUE
molecule=O=C(CCCN1CC=C(n2c(=O)[nH]c3ccccc32)CC1)c1ccc(F)cc1 group_label=FALSE
molecule=CN(C)C(=O)Nc1ccc(Cl)c(Cl)c1 group_label=FALSE
molecule=NCCNc1cccc2ccccc12 group_label=FALSE
molecule="CC(O)Cn1cnc2c1c(=O)n(C)c(=O)n2C (centres undefined)" group_label=FALSE
molecule="CCC1NC(=O)c2cc(S(N)(=O)=O)c(Cl)cc2N1 (centres undefined)" group_label=FALSE
molecule=CCCCCCCCCCCCSCCOCCO group_label=FALSE
molecule=NC(=O)c1ccccc1O group_label=FALSE
molecule=Cc1ccc2c(Br)cc(Br)c(O)c2n1 group_label=TRUE
molecule=Cc1cn([C@H]2C[C@H](F)[C@@H](CO)O2)c(=O)[nH]c1=O group_label=FALSE
molecule=COc1cc(N)c(Cl)cc1C(=O)NC1CCN(Cc2ccccc2)CC1 group_label=FALSE
molecule=O=C1[C@H](CC[C@H](O)c2ccc(F)cc2)[C@@H](c2ccc(O)cc2)N1c1ccc(F)cc1 group_label=FALSE
molecule="CC1(COc2ccc(CC3SC(=O)NC3=O)cc2)CCCCC1 (centres undefined)" group_label=FALSE
molecule=Cc1cccc(C)c1NC(=O)CN1CCCC1 group_label=FALSE
molecule="CCC1Nc2cc(Cl)c(S(N)(=O)=O)cc2S(=O)(=O)N1 (centres undefined)" group_label=FALSE
molecule=Cc1cc(CC(=O)O)c(C)n1-c1ccc(Cl)cc1 group_label=FALSE
molecule=COc1ccc(C(Cl)=C(c2ccc(OC)cc2)c2ccc(OC)cc2)cc1 group_label=FALSE
molecule=OCCOCCN1CCN(C2=Nc3ccccc3Sc3ccccc32)CC1 group_label=FALSE
